# assayedSystem: β-catenin (Homo sapiens, UniProt P35222)
# methodSummary: KD50 measurement using competitive fluorescence polarization (FP) with labelled TCF4
# Format: binding
# assayConditions: fluorescence polarization, β-catenin; read-out: β-Cat FP KD
Where a SMILES comes first, the peptide text is derived from it.
readoutType: Kd

compound	assayedSystem	Kd
CC[C@H](C)[C@H](NC(=O)[C@H](CO)NC(=O)[C@H](CCC(=O)O)NC(=O)[C@H](Cc1c[nH]c2ccccc12)NC(=O)[C@@H](N)CCSC)C(=O)N[C@@H](CC(C)C)C(=O)N[C@@H](CC(=O)O)C(=O)N[C@@H](CCC(=O)O)C(=O)N[C@@H](Cc1c[nH]cn1)C(=O)N[C@@H](CCSC)C(=O)N[C@@H](CCC(N)=O)C(=O)N[C@@H](CCCNC(=N)N)C(=O)N[C@H](C(=O)N[C@@H](Cc1c[nH]c2ccccc12)C(=O)N[C@@H](CCCNC(=N)N)C(=O)NCC(=O)O)C(C)C [compound 23] (H-MWESILDEHMQRVWRG-OH)	β-catenin (Homo sapiens, UniProt P35222)	< 0.4 µM
CC[C@H](C)[C@H](NC(=O)[C@H](CC(C)C)NC(=O)[C@H](Cc1ccccc1)NC(=O)[C@H](Cc1c[nH]c2ccccc12)NC(=O)[C@H](CCCCN)NC(=O)[C@H](CCCNC(=N)N)NC(=O)[C@H](CO)NC(=O)[C@@H](N)CCSC)C(=O)N[C@@H](CO)C(=O)N[C@@H](Cc1ccccc1)C(=O)N[C@@H](Cc1c[nH]c2ccccc12)C(=O)NCC(=O)O [compound 59] (H-MSRKWFLISFWG-OH)	β-catenin (Homo sapiens, UniProt P35222)	> 30 µM

Any idea what its Kd is? The compound is CC[C@H](C)[C@@H]1NC(=O)[C@H](CC(C)C)NC(=O)[C@H](Cc2ccccc2)NC(=O)[C@H](Cc2c[nH]c3ccccc23)NC(=O)[C@@H](N)CC(=O)NCCCC[C@@H](C(=O)NCC(=O)O)NC(=O)[C@H](Cc2c[nH]c3ccccc23)NC(=O)[C@H](Cc2ccccc2)NC(=O)[C@H](CS)NC1=O [compound 176] (HELM PEPTIDE1{D.W.F.L.I.C.F.W.K.G}$PEPTIDE1,PEPTIDE1,1:R3-9:R3$$$V2.0)
10 to 30 µM

====

# assayedSystem: β-catenin (Homo sapiens, UniProt P35222)
# Sequence (P35222 1-781): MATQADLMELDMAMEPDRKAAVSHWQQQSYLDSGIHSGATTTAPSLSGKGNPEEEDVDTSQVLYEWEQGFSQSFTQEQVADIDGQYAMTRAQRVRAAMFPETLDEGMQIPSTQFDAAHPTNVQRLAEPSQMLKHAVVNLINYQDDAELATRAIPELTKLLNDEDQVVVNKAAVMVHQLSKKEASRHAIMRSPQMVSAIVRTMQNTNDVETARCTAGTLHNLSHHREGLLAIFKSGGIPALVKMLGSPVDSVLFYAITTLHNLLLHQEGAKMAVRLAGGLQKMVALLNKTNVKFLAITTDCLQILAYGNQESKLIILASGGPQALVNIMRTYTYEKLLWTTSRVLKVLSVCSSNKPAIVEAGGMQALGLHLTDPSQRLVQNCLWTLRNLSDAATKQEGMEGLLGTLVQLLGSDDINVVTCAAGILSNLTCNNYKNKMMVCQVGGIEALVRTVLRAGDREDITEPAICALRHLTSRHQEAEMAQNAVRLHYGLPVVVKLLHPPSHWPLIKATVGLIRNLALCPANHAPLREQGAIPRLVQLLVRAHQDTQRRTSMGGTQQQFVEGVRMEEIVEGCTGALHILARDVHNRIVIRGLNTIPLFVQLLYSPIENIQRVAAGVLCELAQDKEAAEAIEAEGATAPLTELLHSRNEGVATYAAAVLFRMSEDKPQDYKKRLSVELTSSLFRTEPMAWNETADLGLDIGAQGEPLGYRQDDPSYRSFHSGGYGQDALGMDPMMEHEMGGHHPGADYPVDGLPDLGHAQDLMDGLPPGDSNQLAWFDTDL
# methodSummary: KD50 measurement using competitive fluorescence polarization (FP) with labelled TCF4
# Format: binding
# assayConditions: fluorescence polarization, β-catenin; read-out: β-Cat FP KD
Where a SMILES comes first, the peptide text is derived from it.
readoutType: Kd

Guide cases for Kd, answers given:
compound	Kd
CC[C@H](C)[C@H](NC(=O)[C@H](CC(C)C)NC(=O)[C@@H](NC(=O)[C@H](Cc1c[nH]c2ccccc12)NC(=O)[C@@H](N)CCCCN)[C@@H](C)CC)C(=O)N[C@@H](CO)C(=O)N[C@@H](Cc1ccccc1)C(=O)N[C@@H](Cc1c[nH]c2ccccc12)C(=O)NCC(=O)O [compound 125] (H-KWILISFWG-OH)	400 to 1000 nM
CC[C@H](C)[C@H](NC(=O)[C@H](CC(C)C)NC(=O)[C@H](Cc1ccccc1)NC(=O)[C@H](Cc1c[nH]c2ccccc12)NC(=O)[C@@H](N)CCSC)C(=O)N[C@@H](CO)C(=O)N[C@@H](Cc1ccccc1)C(=O)N[C@@H](Cc1c[nH]c2ccccc12)C(N)=O [compound 107] (H-MWFLISFW-NH2)	1000 to 10000 nM
CC[C@H](C)[C@@H]1NC(=O)[C@H](CC(C)C)NC(=O)[C@H](Cc2ccccc2)NC(=O)[C@H](Cc2c[nH]c3ccccc23)NC(=O)CCCCCCCCCNC(=O)[C@H](Cc2c[nH]c3ccccc23)NC(=O)[C@H](C)NC(=O)[C@H](CS)NC1=O [compound 250] (HELM PEPTIDE1{A.W.[O=C(CCCCCCCCCN[*:1])[*:2]].W.F.L.I.C}$PEPTIDE1,PEPTIDE1,1:R1-8:R2$$$V2.0)	1000 to 10000 nM
CC[C@H](C)[C@H](NC(=O)[C@H](CC(C)C)NC(=O)[C@H](Cc1ccccc1)NC(=O)[C@H](Cc1c[nH]c2ccccc12)NC(=O)[C@@H](N)CCSC)C(=O)N[C@@H](CO)C(=O)N[C@@H](Cc1ccccc1)C(=O)N[C@@H](Cc1c[nH]c2ccccc12)C(=O)NCC(N)=O [compound 108] (H-MWFLISFWG-NH2)	400 to 1000 nM
CC[C@H](C)[C@H](NC(=O)[C@H](CC(C)C)NC(=O)[C@@H](NC(=O)[C@H](Cc1c[nH]c2ccccc12)NC(=O)[C@@H](N)CCSC)[C@@H](C)CC)C(=O)N[C@@H](CS)C(=O)N[C@@H](Cc1ccccc1)C(=O)N[C@@H](Cc1c[nH]c2ccccc12)C(=O)NCC(=O)O [compound 116] (H-MWILICFWG-OH)	400 to 1000 nM

Hi there! I need Kd for each item below, if you can.
1. CSCC[C@H](N)C(=O)N[C@@H](Cc1c[nH]c2ccccc12)C(=O)N[C@@H](Cc1ccccc1)C(=O)N[C@@H](CC(C)C)C(=O)N[C@@H](C)C(=O)N[C@@H](CO)C(=O)N[C@@H](Cc1ccccc1)C(=O)N[C@@H](Cc1c[nH]c2ccccc12)C(=O)NCC(=O)O [compound 11] (H-MWFLASFWG-OH)
2. CC[C@H](C)[C@H](NC(=O)[C@H](CC(C)C)NC(=O)[C@H](Cc1ccccc1)NC(=O)[C@H](Cc1c[nH]c2ccccc12)NC(=O)[C@@H](NC(=O)[C@H](CCCNC(=N)N)NC(=O)[C@H](CO)NC(=O)[C@@H](N)CCSC)[C@@H](C)O)C(=O)N[C@@H](CO)C(=O)N[C@@H](Cc1ccccc1)C(=O)N[C@@H](Cc1c[nH]c2ccccc12)C(N)=O [compound 76] (H-MSRTWFLISFW-NH2)
3. CC[C@H](C)[C@H](NC(=O)[C@H](CC(C)C)NC(=O)[C@H](Cc1ccccc1)NC(=O)[C@H](Cc1c[nH]c2ccccc12)NC(=O)[C@@H](N)CCSC)C(=O)N[C@@H](CO)C(=O)N[C@@H](Cc1ccccc1)C(=O)N[C@@H](Cc1c[nH]c2ccccc12)C(=O)N[C@@H](C)C(=O)O [compound 7] (H-MWFLISFWA-OH)
4. CC[C@H](C)[C@H](NC(=O)[C@H](CC(C)C)NC(=O)[C@H](Cc1ccccc1)NC(=O)[C@H](Cc1c[nH]c2ccccc12)NC(=O)[C@H](CCSC)NC(=O)[C@H](CCCNC(=N)N)NC(=O)[C@@H](NC(=O)[C@@H](N)CCSC)[C@@H](C)CC)C(=O)N[C@@H](CS)C(=O)N[C@@H](C)C(=O)N[C@@H](Cc1c[nH]c2ccccc12)C(=O)NCC(=O)O [compound 166] (H-MIRMWFLICAWG-OH)
5. CC[C@H](C)[C@H](NC(=O)[C@H](CC(C)C)NC(=O)[C@H](Cc1ccccc1)NC(=O)[C@H](Cc1c[nH]c2ccccc12)NC(=O)[C@H](CCSC)NC(=O)[C@H](CCCNC(=N)N)NC(=O)[C@@H](NC(=O)[C@@H](N)CCSC)[C@@H](C)O)C(=O)N[C@@H](CO)C(=O)N[C@@H](Cc1ccccc1)C(=O)N[C@@H](Cc1c[nH]c2ccccc12)C(N)=O [compound 73] (H-MTRMWFLISFW-NH2)
6. CC[C@H](C)[C@@H]1NC(=O)[C@H](CC(C)C)NC(=O)[C@H](Cc2ccccc2)NC(=O)[C@H](Cc2c[nH]c3ccccc23)NC(=O)[C@@H](N)CC(=O)NCCCC[C@@H](C(=O)NCC(=O)O)NC(=O)[C@H](Cc2c[nH]c3ccccc23)NC(=O)[C@H](C)NC(=O)[C@H](CS)NC1=O [compound 178] (HELM PEPTIDE1{D.W.F.L.I.C.A.W.K.G}$PEPTIDE1,PEPTIDE1,1:R3-9:R3$$$V2.0)

1: 400 to 1000 nM; 2: > 30000 nM; 3: 10000 to 30000 nM; 4: > 30000 nM; 5: > 30000 nM; 6: > 30000 nM
